# tested system: T1, recombinant YFV E protein (soluble E, sE; YFV Asibi strain) (Yellow fever virus, Asibi strain, UniProt Q6DV88 286-678)
# T1 construct: also called YFV E antigen; YFV E monomer
# T1 sequence (Q6DV88 286-678): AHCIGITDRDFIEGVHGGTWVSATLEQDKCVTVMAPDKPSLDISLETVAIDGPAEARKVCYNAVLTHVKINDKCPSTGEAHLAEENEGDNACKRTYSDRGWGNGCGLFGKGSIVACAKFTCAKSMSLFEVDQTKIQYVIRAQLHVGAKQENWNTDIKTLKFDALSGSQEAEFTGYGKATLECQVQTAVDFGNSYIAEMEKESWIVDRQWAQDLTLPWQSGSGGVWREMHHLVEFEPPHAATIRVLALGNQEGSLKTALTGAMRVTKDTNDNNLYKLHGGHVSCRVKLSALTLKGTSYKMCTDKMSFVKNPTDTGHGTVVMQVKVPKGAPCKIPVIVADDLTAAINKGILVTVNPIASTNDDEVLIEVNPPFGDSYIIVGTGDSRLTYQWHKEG
# test protocol: BLI monovalent (IgG on tip)
pKd: −log10 of the molar value.
Assign pKd to each entry below.

Req: # get_value(readout='pKd', item= ADI-50539 (antibody, V domains shown, full-length IgG; also called Antibody Number 134) VH: EVQLVESGPGLVKPSGTLSLTCAVSGGSISSSNWWSWVRQPPGKGLEWIGEIYHSGSTNYNPSLKSRVTISVDKSKNQFSLKLSSVTAADTAVYYCARARWEDGNYYYGMDVWGQGTTVTVSS VL: QPVLTQPPSVSAAPGQKVTISCSGSSSNIGNNYVSWYQQLPGTAPKLLIYDNNKRPSGIPDRFSGSKSGTSATLGITGLQTGDEADYYCGTWDSSLSAVVFGGGTKVTVL )
Resp: < 7.00

Req: Repeat with ADI-42810 (antibody, V domains shown, full-length IgG) VH: QVQLVESGAEEKKPGASVKVSCKASGYTFTSYAMHWVRQAPGQRLEWMGWINAGNGNTKYSQKFQGRVTITRDTSASTAYMELSSLRSEDTAVYYCARQWLGHFDYWGQGTLVTVSS VL: QSALTQPASVSGSPGQSITISCTGTSSDVGGYNYVSWYQQHPGKAPKLMIYEVSNRPSGVSNRFSGSKSGNTASLTISGLQAEDEADYYCSSYTSSSTYVFGTGTKVTVL
Resp: < 7.00

Req: Repeat with ADI-42210 (antibody, V domains shown, full-length IgG; also called Antibody Number 16) VH: EVQLLESGPGLVQPSGTLSLTCTASGGSISSSNWWSWVRQPPGKGLEWIGDIYHTGSTSYNPSLKSRVTISVDKSKNQFSLKLSSVTAADTAVYYCARAELSAWYYFDHWGQGTLVTVSS VL: QSVLTQPPSVSAAPGQKVTISCSGSSSNIGNNYVSWYQQLPGTAPKLLIYDNNKRPSGIPDRFSGSKSGTSATLGITGLQTGDEADYYCGTWDTSLSAGRVFGGGTKLTVL
Resp: 7.73
